Test system: KAI3 (IL-2 2.5 ng/mL);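 also: normalised to DMSO-only wells as negative and benzethonium chloride as positive control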
Experiment: percent inhibition of viability; higher = more inhibition
Conditions: 72 h; 100 nM
The threshold is 20%. Values of percent inhibition of viability beneath it are tagged class 1; values meeting or exceeding it are tagged class 0.

compound	assigned.class
COc1cc2c(NC3CCN(C(C)C)CC3)nc(C3CCCCC3)nc2cc1OCCCN1CCCC1 [UNC0638] (max concentration tested 10000 nM)	class 1
CCc1c2c(nc3ccc(OC(=O)N4CCC(N5CCCCC5)CC4)cc13)-c1cc3c(c(=O)n1C2)COC(=O)[C@]3(O)CC [Irinotecan] (max concentration tested 10000 nM)	class 0
Cc1cc(C(=O)NOCCO)c(Nc2ccc(I)cc2F)n(C)c1=O [AZD-8330] (max concentration tested 10000 nM)	class 0
CC(C)Oc1ccc(C(=O)N[C@H](CNC(=O)CN(C)C)Cc2ccc(-c3cn4cccc([C@H](C)O)c4n3)cc2)cc1Cl (max concentration tested 10000 nM)	class 0
O=C(Nc1ccncc1)C(=O)c1cn(Cc2ccc(Cl)cc2)c2ccccc12 [Indibulin] (max concentration tested 10000 nM)	class 0
Cc1sc2c(c1C)C(c1ccc(Cl)cc1)=N[C@@H](CC(=O)Nc1ccc(O)cc1)c1nnc(C)n1-2 [OTX015] (max concentration tested 10000 nM)	class 1
CN(C)c1nc(N(C)C)nc(N(C)C)n1 [Altretamine] (max concentration tested 10000 nM)	class 1
CCN1CCN(c2ccc(Nc3cc(N(C)C(=O)Nc4c(Cl)c(OC)cc(OC)c4Cl)ncn3)cc2)CC1 [NVP-BGJ398] (max concentration tested 1000 nM)	class 1
CN(c1ccccc1CNc1nc(Nc2ccc3c(c2)CC(=O)N3)ncc1C(F)(F)F)S(C)(=O)=O (max concentration tested 10000 nM)	class 1
CC[C@]1(O)C[C@@H]2CN(CCc3c([nH]c4ccccc34)[C@@](C(=O)OC)(c3cc4c(cc3OC)N(C)[C@H]3[C@@](O)(C(=O)OC)[C@H](OC(C)=O)[C@]5(CC)C=CCN6CC[C@]43[C@@H]65)C2)C1 [Vinblastine] (max concentration tested 1000 nM)	class 0
